Origin of the recorded values: patent US10752587B2

Molecular target: glutathione-S-transferase (GST) tagged LXRalpha LBD (ligand binding domain) (Homo sapiens, UniProt Q13133)
Construct: purchased Invitrogen pv4655
Sequence (Q13133 209-447 limits assumed): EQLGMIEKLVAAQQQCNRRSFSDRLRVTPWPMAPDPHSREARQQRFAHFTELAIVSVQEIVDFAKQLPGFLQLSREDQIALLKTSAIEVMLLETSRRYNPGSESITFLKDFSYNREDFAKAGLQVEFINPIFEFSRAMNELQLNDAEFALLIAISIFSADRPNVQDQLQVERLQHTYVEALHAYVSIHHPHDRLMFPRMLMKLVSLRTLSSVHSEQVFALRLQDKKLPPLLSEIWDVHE
Assay: LanthaScreen TR-FRET Liver X Receptor Coactivator Assay, co-activator recruitment to LXRalpha LBD
Assay type: biochemical
Conditions: efficacy at max dose, in relation to reference dual agonist T0901317; read-out: LXR alpha Activity @ max dose (%)
readout name: Emax (%)

Here are 2 compounds together with their reported answers.
sample smiles	Emax, %
Cc1cc(N2CCC(CC3CCN(C(=O)[C@](O)(c4cc(Cl)cc(Cl)c4)C(F)(F)F)CC3)CC2)ccc1C(=O)N(C)C	6
Cc1cccc([C@@](O)(C(=O)N2CCC(CC3CCN(c4ccc(C(=O)N(C)C)c(Cl)n4)CC3)CC2)C(F)(F)F)c1	15

I. COc1cccc(C(=O)C(=O)N2CCC(CC3CCN(c4ccc(C(=O)N(C)C)c(Cl)c4)CC3)CC2)c1
II. CN(C)C(=O)c1ccc(N2CCC(CC3CCN(C(=O)[C@](O)(c4cc(F)cc(F)c4)C(F)(F)F)CC3)CC2)cc1Cl
Please compare: I and II . Report which one has the smaller Emax value. Record your answer as the label of the chosen record.
I
(I: 3%, II: 48%)

====

Molecular target: glutathione-S-transferase (GST) tagged LXRalpha LBD (ligand binding domain) (Homo sapiens)
Construct: purchased Invitrogen pv4655
Experiment: LanthaScreen TR-FRET Liver X Receptor Coactivator Assay, co-activator recruitment to LXRalpha LBD
Type: biochemical
Details: efficacy at max dose, in relation to reference dual agonist T0901317; read-out: LXR alpha Activity @ max dose (%)
readout name: Emax (%)

Consider the worked cases shown below.
molecule	system tested	number
COc1cccc([C@@](O)(C(=O)N2CCC(CC3CCN(c4ccc(C(N)=O)c(Cl)c4)CC3)CC2)C(F)(F)F)c1 [Example 12-4]	glutathione-S-transferase (GST) tagged LXRalpha LBD (ligand binding domain) (Homo sapiens)	13
CN(C)C(=O)c1ccc(N2CCC(CC3CCN(C(=O)C4(c5ccccc5)CCCC4)CC3)CC2)nc1Cl [Example 7-64]	glutathione-S-transferase (GST) tagged LXRalpha LBD (ligand binding domain) (Homo sapiens)	19
COc1cccc([C@@](O)(C(=O)N2CCC(C)(CC3CCN(c4ccc(C(=O)N(C)C)c(C)c4)CC3)CC2)C(F)(F)F)c1 [Example 2-80]	glutathione-S-transferase (GST) tagged LXRalpha LBD (ligand binding domain) (Homo sapiens)	0

I. CN(C)C(=O)c1ccc(N2CCC(CC3CCN(C(=O)[C@@](O)(c4cccc(F)c4)C(F)(F)F)CC3)CC2)nc1Cl [Example 7-73]
II. O=C(c1ccc(N2CCC(CC3CCN(C(=O)[C@](O)(c4cc(Cl)cc(Cl)c4)C(F)(F)F)CC3)CC2)cc1Cl)N1CCC[C@@H]1CO [Example 4-23]
III. CCc1cccc([C@@](O)(C(=O)N2CCC(CC3CCN(c4ccc(C(=O)NC)c(Cl)c4)CC3)CC2)C(F)(F)F)c1 [Example 7-120]
Descending sort on Emax required. API: response body holds the labels in the requested order.
I, III, II
(I: 47%, III: 12%, II: 4%)

P. CN(C)CCN(C)C(=O)c1ccc(N2CCC(CC3CCN(C(=O)[C@](O)(c4ccccc4)C(F)(F)F)CC3)CC2)cc1Cl [Example 4-13]
Q. CCc1cccc([C@@](O)(C(=O)N2CCC(C)(CC3CCN(c4ccc(C(=O)N(C)C)c(Cl)n4)CC3)CC2)C(F)(F)F)c1 [Example 7-49]
R. CN(C)C(=O)c1ccc(N2CCC(CC3CCN(C(=O)[C@](O)(c4cccc(OC5CC5)c4)C(F)(F)F)CC3)CC2)cc1Cl [Example 2-99]
Put the entries in order of Emax, starting with the largest number. Please list each label once, in the requested order.
P, Q, R
